- Measured On: TRBV9+TRAV26 antigen
- Test: BLI (OctetRed 96), antigen on AR2G sensors, antibody 126-2 nM, 1:1 model; run 1
Answer each item with its documented koff.
Give bare numbers, in s⁻¹.

Solved cases below.
anti-TRBV9-3 monoclonal antibody (antibody, human IgG1, kappa, V domains shown) VH: QIQLVQSGPELREPGESVKLSCKASGYTFTDYLVHWVKQAPGKGLKWMGWINTYTGTPTYADDFEGRFVFSLEASASTANLQISNLKNEDTATYFCARSWRRGIRGLGFDYWGQGVFVTVSS VL: DVQMTQSPYNLAASPGESVSINCKASKSINKYLAWYQQKPGKPNKLLIYDGSTLQSGIPSRFSGSGSGTDFTLTIRGLEPEDFGLYYCQQHNEYPPTFGAGTKLELKR    9.16e-05
anti-TRBV9-2 monoclonal antibody (antibody, human IgG1, kappa, V domains shown) VH: QIQLVQSGPELREPGESVKLSCKASGYTFTDYLVHWVKQAPGKGLKWMGWINTYTGTPTYADDFEGRFVFSLEASASTANLQISNLKNEDTATYFCARSWRRGLRGIGFDYWGQGVFVTVSS VL: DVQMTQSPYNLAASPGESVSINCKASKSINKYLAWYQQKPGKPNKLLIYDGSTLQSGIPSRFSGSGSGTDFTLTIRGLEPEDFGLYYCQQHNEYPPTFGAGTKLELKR    6.02e-06

We next turn to a different binder, shown below.
koff for anti-TRBV9-1 monoclonal antibody (antibody, human IgG1, kappa, V domains shown) VH: QIQLVQSGPELREPGESVKLSCKASGYTFTDYLVHWVKQAPGKGLKWMGWINTYTGTPTYADDFEGRFVFSLEASASTANLQISNLKNEDTATYFCARSWRRGLRGLGFDYWGQGVFVTVSS VL: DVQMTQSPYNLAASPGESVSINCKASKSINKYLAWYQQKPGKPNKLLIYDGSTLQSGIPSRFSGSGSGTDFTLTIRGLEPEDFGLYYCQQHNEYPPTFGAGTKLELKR is 0.000113
